tested on: SF-539 CNS; assay: NCI-60 one-dose screen, 48 h; details: 10 µM
About 83,000 compounds went through this panel and 20% of them were active in at least one assay; those are over-represented in the sample as a whole. Activity calls are given as the source filed them. Rule for the calls: active = growth percent below 10; inactive = the rest.
Outcome codes: yes for active, no for inactive

- smiles.notation: "O=C(Nc1ccc(CO)cc1)c1ccccc1Nc1ccnc(C(F)(F)F)c1"
  group.label: "no"
- smiles.notation: "Cc1cccc2c1O/C(=C\\c1ccc([N+](=O)[O-])o1)C2=O"
  group.label: "yes"
- smiles.notation: "CSc1nc(=O)n(Cc2ccc(Cl)cc2)c(=O)[nH]1"
  group.label: "no"
- smiles.notation: "CC12O[C@H](C[C@@H](O)[C@H]1O)n1c3ccccc3c3c4c(c5c6ccccc6n2c5c31)C(=O)N(CCCN)C4=O"
  group.label: "no"
- smiles.notation: "Cc1ccc(NC(=O)Nc2nc3ccccc3s2)cc1NC(=O)Nc1nc2ccccc2s1"
  group.label: "no"
- smiles.notation: "O=C(CCCCCCC(=O)Nc1cccnc1)NO"
  group.label: "no"

###

tested on: U251 CNS; assay: NCI-60 one-dose screen, 48 h (100 = growth as untreated, 0 = no growth, -100 = all killed); details: 10 µM
The panel holds about 83,000 compounds, 20% with a hit somewhere; the sample as a whole holds those more often.
Tag: true (1) if measured growth is not below 50%, false (0) if it is.

- molecule: "CC1=C(N2CCOCC2)C(N2CCOCC2)=C(C)C(=O)C1=O"
  group.label: "true (1)"
- molecule: "Cc1cccc(Cl)c1NC(=O)c1ccc2nc(NC(=O)NC3CCN(C)CC3)sc2c1"
  group.label: "true (1)"
- molecule: "C#Cc1ccc(-n2c(/C=C/c3ccc4ccccc4c3)nc3ncccc3c2=O)cc1"
  group.label: "false (0)"
- molecule: "Cc1cc(Cl)nc(N(CCCNc2ccnc3cc(Cl)ccc23)Cc2cccs2)n1"
  group.label: "false (0)"
- molecule: "COc1ccccc1CNCCN1C(=O)c2ccc3c4c(ccc(c24)C1=O)C(=O)N(CCNCc1ccccc1OC)C3=O"
  group.label: "false (0)"
- molecule: "CCN(CC)CCOc1nc2cc(OC)c(OC)cc2c2c1-c1ccc(OC)cc1C2=O"
  group.label: "true (1)"
- molecule: "COc1ccc(-c2nn(-c3cccc(NC(=O)Nc4ccccc4)c3)cc2-c2ccncc2)cc1Cl"
  group.label: "false (0)"
- molecule: "COC(=O)C1=NNC(=S)N(c2cc(C)[nH]n2)C(=O)C1"
  group.label: "true (1)"
- molecule: "O=S(=O)(NCCCNc1nccc(-c2c(-c3ccc(F)cc3)nc3sccn23)n1)c1ccc(F)cc1"
  group.label: "false (0)"
- molecule: "COc1ccc(-c2nc(-c3nc4ccc(OC)cc4[nH]3)cc3c2[nH]c2ccccc23)cc1"
  group.label: "false (0)"
- molecule: "COc1cc(NC(=O)CSc2nc3ccccc3c(=O)n2CCc2ccccc2)cc(OC)c1OC"
  group.label: "false (0)"
- molecule: "Cc1ccc(-c2n[nH]c(=O)c3noc(-c4ccc(C)cc4)c23)cc1"
  group.label: "false (0)"
- molecule: "NC(=O)SCC(=O)Nc1ccc(S(N)(=O)=O)cc1"
  group.label: "true (1)"
- molecule: "O=C(N/N=C/c1cc2ccccc2c2ccccc12)c1cc(O)c(O)c(O)c1"
  group.label: "false (0)"
- molecule: "ClCC#CCSc1ncnc2c1ncn2CC#CCCl"
  group.label: "false (0)"
- molecule: "Oc1[nH]c2cc(Cl)ccc2c1/C=c1/ccc2c(c1)N=C(c1cc(F)cc(F)c1)N=2"
  group.label: "false (0)"
- molecule: "Clc1ccc2c(NCCCNc3nccc(Nc4ccc(Br)cc4)n3)ccnc2c1"
  group.label: "false (0)"
- molecule: "Cc1cc(=O)n2nnc3c4ccccc4ccc3n12"
  group.label: "true (1)"
- molecule: "O=S(=O)(Nc1ccccn1)c1ccc(N=Nc2ccc(O)c3ncccc23)cc1"
  group.label: "false (0)"
- molecule: "CCN(CC)Cc1cc(Nc2ccnc3cc(Cl)ccc23)ccc1OC"
  group.label: "true (1)"
- molecule: "C(CCCC1=NCCO1)CCCC1=NCCO1"
  group.label: "true (1)"
- molecule: "COc1ccc(-n2c(SCc3cc(OC)c(OC)c(OC)c3)nc3ccc(C)cc3c2=O)cc1"
  group.label: "true (1)"
- molecule: "CCOC(=O)C(NC(=O)C(Cl)Cl)C(O)c1ccccc1 (configuration not stated)"
  group.label: "true (1)"
- molecule: "O=C1CC[C@@H]2CCCC[C@@H]2C1"
  group.label: "true (1)"
- molecule: "Clc1cc2c(c(CSc3nc4ccccc4n4cccc34)c1)OCOC2"
  group.label: "true (1)"
- molecule: "CCCC1(CC(=O)O)OCCc2c1[nH]c1ccccc21 (configuration not stated)"
  group.label: "true (1)"
- molecule: "CC/C(=N\\N=C(/CC)c1ccc(Br)cc1)c1ccc(Br)cc1"
  group.label: "true (1)"
- molecule: "COc1ccc(-c2nn(-c3cccc(NC(=O)c4ccc(N5CCOCC5)c(C(F)(F)F)c4)c3)cc2-c2ccncc2)cc1Cl"
  group.label: "false (0)"
- molecule: "CCOC(=O)C(=Cc1ccc(Br)cc1)C(=O)OCC"
  group.label: "false (0)"
- molecule: "CC(=O)C1CCC2C3CC(F)C4=CC(=O)CCC4(C)C3C(O)CC12C (configuration not stated)"
  group.label: "true (1)"
- molecule: "COc1ccc(/C=C2/CN(CCC#N)C/C(=C\\c3ccc(OC)cc3)C2=O)cc1"
  group.label: "false (0)"
- molecule: "C#Cc1ccc(-n2c(/C=C/c3ccc4ccccc4n3)nc3ncccc3c2=O)cc1"
  group.label: "false (0)"
- molecule: "O=C(CC(NC(=O)OCc1ccccc1)C(=O)OCc1ccccc1)OCc1ccccc1 (configuration not stated)"
  group.label: "true (1)"
- molecule: "Clc1ccc(/C=C2\\CCCC3=C2N=C2SC=NN2C3c2ccc(Cl)cc2)cc1 (configuration not stated)"
  group.label: "true (1)"
- molecule: "CCN(CC)CCC(CNc1c(C)cnc2cc(Cl)ccc12)c1ccc(Cl)c(Cl)c1 (configuration not stated)"
  group.label: "false (0)"
- molecule: "COc1cc(-c2cc(C(=O)N3CCN(C(=O)c4ccccc4NCc4ccco4)CC3)nc3cc(-c4ccccc4)nn23)cc(OC)c1OC"
  group.label: "false (0)"
- molecule: "Cc1cc(=O)[nH]c(N/N=C/c2ccccc2O)n1"
  group.label: "false (0)"
- molecule: "COc1ccc(NC(=O)Cc2nc3nc4sc(C)c(C)c4c(=O)n3[nH]2)cc1"
  group.label: "true (1)"
- molecule: "O=C(NN1C(=O)CSC1c1ccc(Cl)cc1)c1cccnc1 (configuration not stated)"
  group.label: "true (1)"
- molecule: "ClC(Cl)(Cl)c1nc2nccnc2[nH]1"
  group.label: "true (1)"

###

test system: SNB-19 CNS; experiment: NCI-60 one-dose screen, 48 h (100 = growth as untreated, 0 = no growth, -100 = all killed); settings: 10 µM
About 83,000 compounds went through this panel and 20% of them were active in at least one assay; those are over-represented in the sample as a whole.
# if value of growth reaches 70%, tag 1 (yes); if it stays below, tag 0 (no)

- molecule: "CCOC(=O)N1C/C(=C/c2ccc(F)cc2)C(=O)/C(=C/c2ccc(F)cc2)C1"
  target.system: "SNB-19 CNS"
  group.label: "0 (no)"
- molecule: "CCCCOC(=O)Oc1ccc(C(=O)Oc2ccc(OCC)cc2)cc1"
  target.system: "SNB-19 CNS"
  group.label: "1 (yes)"
- molecule: "C#Cc1ccc(-n2c(/C=C/c3cc(OC)cc(OC)c3)nc3ncccc3c2=O)cc1"
  target.system: "SNB-19 CNS"
  group.label: "1 (yes)"
- molecule: "COc1cc(-c2nn3c(/C=C4/C(=O)Nc5ccccc54)c(-c4ccc(C)cc4)nc3s2)cc(OC)c1OC"
  target.system: "SNB-19 CNS"
  group.label: "1 (yes)"
- molecule: "COc1cc(-c2cc(/C=C3\\C(=O)Nc4ccc(Cl)cc43)[nH]n2)cc(OC)c1OC"
  target.system: "SNB-19 CNS"
  group.label: "0 (no)"
- molecule: "COc1ccc(C2CC(c3ccc(N(C)C)cc3)=NN2c2ccc(S(N)(=O)=O)cc2)cc1 (stereo not given)"
  target.system: "SNB-19 CNS"
  group.label: "0 (no)"
- molecule: "COc1ccc(Nc2ccnc(NCCNc3ccnc4cc(Cl)ccc34)n2)cc1"
  target.system: "SNB-19 CNS"
  group.label: "0 (no)"
- molecule: "C/C(=N\\Nc1nc2ccccc2s1)c1ccncn1"
  target.system: "SNB-19 CNS"
  group.label: "0 (no)"
- molecule: "NC1(C(=O)O)CSSC1"
  target.system: "SNB-19 CNS"
  group.label: "0 (no)"

The values you see were collected from PubChem BioAssay (NCI).
